- ASSAY NOTES: in vitro
- Format: cell-based
- APPLIED CONDITIONS: human, u937 cells; 10^-10 M; MTT method

[
  {
    "COMPOUND": "COCC(OC)C(=O)OC(CCC(C)C(CC1OC(=O)CC(O)C/C=C/C(=O)C(C)C(OC)c2coc(n2)-c2coc(n2)-c2coc(n2)/C=C/CC(OC)C1C)OC)C(C)C(OC(C)=O)C(C)/C=C/N(C)C=O (stereo not shown) [Mycalolide B]",
    "cytotoxicity at 0.0001 µM [%]": 0.7
  }
]

---

- ASSAY NOTES: in vitro
- Type: cell-based
- APPLIED CONDITIONS: human, u937 cells; 10^-7 M; MTT method
PROPERTY: cytotoxicity at 0.1 µM

[
  {
    "COMPOUND": "COCC(OC)C(=O)OC(CCC(C)C(CC1OC(=O)CC(O)C/C=C/C(=O)C(C)C(OC)c2coc(n2)-c2coc(n2)-c2coc(n2)/C=C/CC(OC)C1C)OC)C(C)C(OC(C)=O)C(C)/C=C/N(C)C=O (stereo not shown) [Mycalolide B]",
    "PROPERTY": "cytotoxicity at 0.1 µM",
    "RESULT": "4.3%"
  }
]
